Data credit: patent US11180462B2

Entries and their measured melting point follow.
assay-endpoint: melting point

compound="CON(Cc1ccc(-c2noc(C(F)(F)F)n2)cc1)C(=O)C1CCCN1C(C)=O (stereo not shown) [Compound 1.805]" assay_endpoint="melting point" reported="93.9 to 96.8 °C"
compound="CON(Cc1ccc(-c2noc(C(F)(F)F)n2)cc1)C(=O)NC1(C)CC1 [Compound 3.46]" assay_endpoint="melting point" reported="93 to 97 °C"
compound="CON(Cc1ccc(-c2noc(C(F)(F)F)n2)cc1)C(=O)NC1(C#N)CC1 [Compound 3.47]" assay_endpoint="melting point" reported="106 to 109 °C"
compound="CON(C)C(=O)N(O)Cc1ccc(-c2noc(C(F)(F)F)n2)cc1 [Compound 3.29]" assay_endpoint="melting point" reported="96.3 to 100.5 °C"

* * *

Listed next: entries and their corresponding melting point.
assay-endpoint: melting point

molecule="CON(Cc1ccc(-c2noc(C(F)(F)F)n2)cc1)C(=O)NCC(F)(F)F [Compound 3.38]" reported="95 to 98 °C"
molecule="CON(Cc1ccc(-c2noc(C(F)(F)F)n2)cc1)C(=O)NCC(=O)N(C)C [Compound 3.51]" reported="98 to 101 °C"
molecule="CCON(Cc1ccc(-c2noc(C(F)(F)F)n2)cc1)C(=O)OC [Compound 2.5]" reported="50.6 to 53 °C"
molecule="CON(Cc1ccc(-c2noc(C(F)(F)F)n2)cc1)C(=O)C(C)NC(=O)C1CC1 (stereo not shown) [Compound 1.798]" reported="129.7 to 134 °C"

* * *

# Tested on: Phakopsora Pachyrhizi
# measurement-description: Fungicidal activity against Phakopsora pachyrhizi / soybean / leaf disc preventative (Asian soybean rust)
# Assay type: in vivo
# condition-context: foliar, 200 ppm in the applied formulation, soybean leaf disks, compared to untreated control leaf disks, read-out: disease control
Each entry below lists one item and its recorded pest or weed control at 200 ppm value.
assay-endpoint: pest or weed control at 200 ppm

compound=CCON(Cc1ccc(-c2noc(C(F)(F)F)n2)cc1)C(=O)C1(C)CC1 reported="≥ 80%"
compound="O=C(C1CCOC1)N(CCO)Cc1ccc(-c2noc(C(F)(F)F)n2)cc1 (centres unmarked)" reported="≥ 80%"
compound="C=CCN(Cc1ccc(-c2noc(C(F)(F)F)n2)cc1)C(=O)C(C)OC (centres unmarked)" reported="≥ 80%"
compound=O=C(C1CCC1)N(Cc1ccc(-c2noc(C(F)(F)F)n2)cc1)C1CC1 reported="≥ 80%"
compound="O=C(CC1CC1)N(Cc1ccc(-c2noc(C(F)(F)F)n2)cc1)CC1CCCO1 (centres unmarked)" reported="≥ 80%"
compound=O=C(CC(F)(F)F)N(Cc1ccc(-c2noc(C(F)(F)F)n2)cc1)C1CC1 reported="≥ 80%"
compound=COCCC(=O)N(Cc1ccc(-c2noc(C(F)(F)F)n2)cc1)C(C)C reported="≥ 80%"
compound=CCON(Cc1ccc(-c2noc(C(F)(F)F)n2)cc1)C(=O)COC reported="≥ 80%"

* * *

assay-endpoint: melting point

compound=CON(Cc1ccc(-c2noc(C(F)(F)F)n2)cc1)C(=O)CNC(=O)OC(C)(C)C reported="80 to 83.1 °C"
compound=CCOC(=O)C1(NC(=O)N(Cc2ccc(-c3noc(C(F)(F)F)n3)cc2)OC)CC1 reported="93 to 97 °C"
compound=CCC(=O)N(Cc1ccc(-c2noc(C(F)(F)F)n2)cc1)C1COC1 reported="88.8 to 93.5 °C"
compound="CCC(=O)NC(C)C(=O)N(Cc1ccc(-c2noc(C(F)(F)F)n2)cc1)OC (stereo not drawn)" reported="121.7 to 123.9 °C"
compound=CON(Cc1ccc(-c2noc(C(F)(F)F)n2)cc1)C(=O)CBr reported="81.2 to 84.9 °C"
compound=CON(Cc1ccc(-c2noc(C(F)(F)F)n2)cc1)C(=O)CNC(C)=O reported="132.8 to 134.9 °C"
compound=CNC(=O)N(Cc1ccc(-c2noc(C(F)(F)F)n2)cc1)C1CC1 reported="113 to 114 °C"
compound=CCC(=O)N(O)Cc1ccc(-c2noc(C(F)(F)F)n2)cc1 reported="141.2 to 143.5 °C"
compound="CON(Cc1ccc(-c2noc(C(F)(F)F)n2)cc1)C(=O)C1CCCN1.Cl (stereo not drawn)" reported="185.5 to 188.5 °C"
